System: A549-TUBA1B-RELA
Protocol Details: phenotypically active (imaging signature differs from DMSO and reproducible) at any of 0.3-9 uM (binary (1 = active, 0 = inactive)); higher = active
Assay Setup: treatment time: 24 h
Outcome codes: Y for active, N for inactive

Compound: CC(C)OC(=O)C(C)(C)Oc1ccc(C(=O)c2ccc(Cl)cc2)cc1 [Fenofibrate]
Discrete Label: N

Compound: CC1(CN2CCC(n3c(=O)[nH]c4ccccc43)CC2)OCc2ccccc2-n2cccc21 (stereo not given)
Discrete Label: Y

Compound: CNC(=O)c1ccc(C)c(-n2c(C)cc(OCc3ccc(F)cc3F)c(Br)c2=O)c1
Discrete Label: N

Compound: O=C(CCCCSc1nc(-c2ccc(-c3ccccc3)cc2)cc(=O)[nH]1)NO
Discrete Label: Y

Compound: N[C@@H](C(=O)O)c1ccc(C(=O)O)c(C(=O)O)c1
Discrete Label: N

###

Tested on: HepG2-GM130-SQSTM1
Protocol Details: lowest phenotypically active concentration; higher = less potent
Assay Setup: treatment time: 24 h
Readout Name: lowest phenotypically active concentration (µM)

Molecule: COc1cc2ncn(-c3cc(OCc4ccccc4C(F)(F)F)c(C(N)=O)s3)c2cc1OC
Rel: ≤
Measured: 0.3
--
Molecule: Nc1ncnc2c1nc(Cl)n2C1O[C@H](CO)[C@@H](O)[C@H]1O (stereo not given in full) [8-Chloroadenosine]
Rel: =
Measured: 1
--
Molecule: COc1ccc(N2C(=O)CSC2c2cccc(Br)c2)c(OC)c1 (stereo not given)
Rel: =
Measured: 9
--
Molecule: Cc1cc(Nc2cc(N3CCN(C)CC3)nc(Sc3ccc(NC(=O)C4CC4)cc3)n2)[nH]n1
Rel: ≤
Measured: 0.3
--
Molecule: O=C1c2ccccc2-c2nc3nonc3nc21
Rel: =
Measured: 3

###

Test system: A549-ACTB-RAB5A
Protocol Details: phenotypically active (imaging signature differs from DMSO and reproducible) at any of 0.3-9 uM (binary (1 = active, 0 = inactive)); higher = active
Assay Setup: treatment time: 24 h
Counter-ions that a name gives are not always drawn.
Readout Name: phenotypically active

Compound: COCCCOc1ccnc(CS(=O)c2nc3ccccc3[nH]2)c1C (centres undefined)
Measured: 0
--
Compound: NC(=O)c1ccc(I)c([N+](=O)[O-])c1
Measured: 0
--
Compound: O[C@H](CNC[C@H](O)[C@@H]1CCc2cc(F)ccc2O1)[C@@H]1CCc2cc(F)ccc2O1
Measured: 1
--
Compound: COc1cc(Br)c(Nc2nc(-c3c(C)nc4ncccn34)cs2)c(Br)c1
Measured: 1
--
Compound: COc1cc(C#N)ccc1S(=O)(=O)Nc1ccc2c(c1)cc(C)c(=O)n2C
Measured: 0
--
Compound: CN1CCN(C(=O)CN[C@H]2C[C@@H]2c2ccc(OCc3ccccc3)cc2)CC1 [RN 1 dihydrochloride]
Measured: 1
--
Compound: Cc1cc(C(C)Nc2ccccc2)c2nc(N3CCOCC3)cc(=O)n2c1 (centres undefined)
Measured: 1
--
Compound: O=C(O)C[C@H](O)C[C@H](O)/C=C/c1c(C2CC2)nc2ccccc2c1-c1ccc(F)cc1
Measured: 1
--
Compound: O=S(=O)(NCCSSCCNS(=O)(=O)c1cc(Cl)ccc1Cl)c1cc(Cl)ccc1Cl
Measured: 0
--
Compound: COP(=O)(OC)OC(c1ccc(Cl)cc1)P(=O)(OC)OC (centres undefined)
Measured: 0
--
Compound: CC(=O)[C@H]1CC[C@H]2[C@@H]3C=CC4=CC(=O)CC[C@@]4(C)[C@@H]3CC[C@]12C
Measured: 0
--
Compound: Cc1cccc(C)c1OCC(=O)N[C@@H](Cc1ccccc1)[C@@H](O)C[C@H](Cc1ccccc1)NC(=O)[C@H](C(C)C)N1CCCNC1=O
Measured: 1
--
Compound: O=C1NC(=O)C(c2ccccc2[N+](=O)[O-])=C1Nc1ccc(O)c(Cl)c1
Measured: 1
--
Compound: OC(CCN1CCCCC1)(c1ccccc1)C1CC2C=CC1C2 (centres undefined)
Measured: 0
--
Compound: CNC(=C[N+](=O)[O-])NCCSCc1ccc(CN(C)C)o1
Measured: 0
--
Compound: CCCCN1C[C@H](O)[C@@H](O)[C@H](O)[C@H]1CO [Miglustat hydrochloride]
Measured: 0
--
Compound: CCOC(=O)C1=C(C)NC(=S)N[C@H]1c1cccc(O)c1
Measured: 0
--
Compound: CC(=O)NCCCS(=O)(=O)O [acamprosate]
Measured: 0
--
Compound: Cc1ccc(Nc2nccc(N(C)c3ccc4c(C)n(C)nc4c3)n2)cc1S(N)(=O)=O
Measured: 1

###

Test system: A549-CANX-COX4
Protocol Details: phenotypically active (imaging signature differs from DMSO and reproducible) at any of 0.3-9 uM (binary (1 = active, 0 = inactive)); higher = active
Assay Setup: treatment time: 24 h
Structures can show the parent of a compound that is named as a salt.
Readout Name: phenotypically active

Compound: Cc1ccc(OCCSc2ncccn2)c(Br)c1 [ZLN 024 hydrochloride]
Measured: 0
//
Compound: C[N+](C)(CCCCCC[N+](C)(C)CCCN1C(=O)c2ccccc2C1=O)CCCN1C(=O)c2ccccc2C1=O [W-84 dibromide]
Measured: 0
//
Compound: Cc1ccc(NC(=O)c2ccc(CN3CCN(C)CC3)cc2)cc1Nc1nccc(-c2cccnc2)n1 [Imatinib mesylate]
Measured: 1
//
Compound: CC1(C)CCC(C)(C)c2cc(C(O)C(=O)Nc3ccc(C(=O)O)cc3F)ccc21 (centres undefined)
Measured: 0
//
Compound: CCN(Cc1ccncc1)C(=O)C(CO)c1ccccc1 (centres undefined) [tropicamide]
Measured: 0
//
Compound: CC(C)CCN1c2nc(Nc3cc(F)c(O)c(F)c3)ncc2N(C)C(=O)C1C (centres undefined)
Measured: 0
//
Compound: C=C[C@H]1CN2CC[C@H]1C[C@H]2[C@H](O)c1ccnc2ccc(OC)cc12 [Quinine dihydrochloride]
Measured: 0
//
Compound: COC(=O)C1CC23C=CCN4CCC5(c6ccccc6NC15[C@H]2C)C43 (some centres undefined) [Vindolinine dichlorhydrate]
Measured: 0
//
Compound: Nc1nc(Cl)nc2c1ncn2[C@H]1C[C@H](O)[C@@H](CO)O1
Measured: 1
//
Compound: CCc1nc(-c2cccc(C)c2)c(-c2ccnc(NC(=O)c3ccccc3)c2)s1
Measured: 0
//
Compound: O=C1NCCCc2c1oc1ccc(O)cc21
Measured: 0
//
Compound: Cc1cc2c(F)c(Oc3ncnn4cc(OC[C@@H](C)OC(=O)[C@H](C)N)c(C)c34)ccc2[nH]1 [brivanib-alaninate]
Measured: 1
//
Compound: O=C1N=C(NCc2cccs2)S/C1=C\c1ccc2ncccc2c1
Measured: 1
//
Compound: Cc1ccc(C(=O)Oc2ccc(C(O)CNC(C)(C)C)cc2OC(=O)c2ccc(C)cc2)cc1 (centres undefined)
Measured: 0
//
Compound: O=C(O)[C@]1(Cc2cccc(Nc3nccs3)n2)CC[C@@H](Oc2cccc(Cl)c2F)CC1
Measured: 1
//
Compound: C#CCN(C)Cc1ccccc1
Measured: 0
//
Compound: CCOc1nc(NC(=O)Cc2cc(OC)ccc2OC)cc(N)c1C#N
Measured: 0
//
Compound: CC[N+](C)(CC)CCOC(=O)C1c2ccccc2Oc2ccccc21
Measured: 0
//
Compound: Cc1cnc(C(=O)NCCc2ccc(S(=O)(=O)NC(=O)NC3CCCCC3)cc2)cn1 [glipizide]
Measured: 0
//
Compound: Cc1cc(/N=N/c2ccc(S(=O)(=O)Nc3ccccn3)cc2)c(N)cc1O
Measured: 1
//
Compound: N#Cc1c(NC(=O)c2cccc3ccccc23)sc2c1CCCC2
Measured: 1
//
Compound: CCOC(=O)c1ccc(N2NC(=O)/C(=C/c3ccc([N+](=O)[O-])o3)C2=O)cc1
Measured: 0
//
Compound: CC(=O)N1CCN(C)CC1 [1-Acetyl-4-methylpiperazine hydrochloride]
Measured: 0
//
Compound: O=C(O)[C@H](O)[C@@H](O)[C@H](O[C@@H]1O[C@H](CO)[C@H](O)[C@H](O)[C@H]1O)[C@H](O)CO
Measured: 0
//
Compound: COc1cc(N2CCC(N3CCN(C)CC3)CC2)ccc1Nc1ncnc(Nc2ccccc2S(=O)(=O)C(C)C)n1
Measured: 1
//
Compound: CC(=O)O[C@H]1C(=O)[C@@]2(C)[C@H]([C@H](OC(=O)c3ccccc3)[C@]3(O)C[C@H](OC(=O)[C@H](O)[C@@H](NC(=O)c4ccccc4)c4ccccc4)C(C)=C1C3(C)C)[C@]1(OC(C)=O)CO[C@@H]1C[C@@H]2O
Measured: 1
//
Compound: C=C(C)[C@@H]1CC[C@]2(CO)CC[C@]3(C)[C@H](CC[C@@H]4[C@@]5(C)CC[C@H](O)C(C)(C)[C@@H]5CC[C@]43C)[C@@H]12
Measured: 0
//
Compound: O=c1c(O)c(-c2ccc(O)c(O)c2)oc2cc(O)cc(O)c12
Measured: 0
//
Compound: CC(C)N(CCCNC(=O)Nc1ccc(C(C)(C)C)cc1)C[C@H]1O[C@@H](n2ccc3c(N)ncnc32)[C@H](O)[C@@H]1O
Measured: 0
//
Compound: Cc1ccc(C(=O)c2ccc(CC(=O)O)n2C)cc1
Measured: 0
//
Compound: C[C@H](CCC(=O)NCC(=O)O)[C@H]1CC[C@H]2[C@@H]3[C@H](O)C[C@@H]4C[C@H](O)CC[C@]4(C)[C@H]3C[C@H](O)[C@]12C
Measured: 0
//
Compound: COc1cc2c(cc1OC)-c1c/c(=N/c3c(C)cc(C)cc3C)n(C)c(=O)n1CC2 [Trequinsin hydrochloride]
Measured: 0
//
Compound: OCCN1C[C@H](O)[C@@H](O)[C@H](O)[C@H]1CO
Measured: 0
//
Compound: NS(=O)(=O)c1nn2cc(-c3ccccc3)nc2s1
Measured: 0
